Form field: inhibition (one value per entry).
- system: Platelet-activating factor acetylhydrolase IB subunit alpha1 (Homo sapiens)
- test name: PAFAH1B3 enzyme inhibitors, confirmation, biochemical, fluorescence polarization, human (AID 493032);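 further: 0% = enzyme with DMSO and 100% = wells lacking PAFAH1B3 protein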
- recorded conditions: recombinant PAFAH1B3, FP-Rh activity-based probe, at 3.39 µM, active compounds read high
The list shows a part of the results.
test readout: inhibition (%)

1) ON=C1/C(=N\O)CC2(C/C1=N/O)OCCO2: 27.1
2) COc1ccc(C2=Nn3c(nnc3-c3ccccc3OC)SC2)cc1OC1CCCC1: 35.2
3) COc1ccc(NC(=O)ON=C2c3ccccc3-c3ccccc32)cc1: 29
4) COc1ccc(C(=O)COC(=O)c2ccc([N+](=O)[O-])s2)cc1OC: 13.3
5) O=C(N/N=C/c1sc(N2CCCCC2)nc1-c1cccs1)c1cccnc1: 12.7
6) COc1cccc(Cn2cc(/C=N/NC(=O)c3cc(O)cc(O)c3)c3ccccc32)c1: 17.6
